- Tested on: 786-0 renal
- Assay info: NCI tumour cell line growth inhibition, 48 h
For each of the molecules below, state its TGI.

Observe how each entry below is paired with its result.
[
  {
    "Molecule": "NC(=O)NC(=O)Nc1ccc(Br)cc1",
    "Experimental result": "> 100 µM"
  },
  {
    "Molecule": "C/C(=N\\O)C1CC(CC(=O)O)C1(C)C (configuration not stated)",
    "Experimental result": "> 100 µM"
  },
  {
    "Molecule": "Cc1ccc2c(-c3ccnc(Nc4cccc(C(F)(F)F)c4)n3)c(-c3ccccc3)nn2n1",
    "Experimental result": "> 15.1 µM"
  },
  {
    "Molecule": "COc1cccc(N2C(=N)/C(=C3\\Nc4ccccc4S3)CC2=O)c1",
    "Experimental result": "> 100 µM"
  },
  {
    "Molecule": "O=C1NC(=S)NC(=O)C1=Cc1ccc([N+](=O)[O-])o1",
    "Experimental result": "36.5 µM"
  },
  {
    "Molecule": "O=C(CCl)N1CCN(c2ccccn2)CC1",
    "Experimental result": "35.1 µM"
  },
  {
    "Molecule": "COc1ccc(C(=O)C(c2ccc(OC)cc2)C2(O)C(=O)Nc3c(Cl)cc(Cl)cc32)cc1 (configuration not stated)",
    "Experimental result": "29 µM"
  },
  {
    "Molecule": "O=C(O)C1CC[N-]CC1.O=C(O)C1CC[N-]CC1.[NH2-].[NH2-].[Pt+4]",
    "Experimental result": "> 100 µM"
  },
  {
    "Molecule": "C=C(Cl)[C@](Cl)(CBr)CC[C@@H](Br)C(C)(C)Cl",
    "Experimental result": "0.552 µM"
  },
  {
    "Molecule": "CN1CCOC1(C)c1ccccc1 (configuration not stated)",
    "Experimental result": "> 100 µM"
  }
]

Batch lookup, TGI per entry.
1. C[C@H]1[C@H]2[C@H](C[C@@]3(C)C4=CC[C@H]5C(C)(C)[C@@H](OC6OCC(O)C(O)C6O)CC[C@@]56C[C@@]46CC[C@]23C)O[C@@]2(O)[C@@H]1OC(C)(C)[C@H]2O (some centres not stated)
2. CC(=O)NNc1nc(C)c(C(=O)/C=C/c2ccc(N(C)C)cc2)s1

1. 2.76 µM
2. > 100 µM

###

- System: MDA-N
- Assay info: NCI tumour cell line growth inhibition, 48 h
For each of the compounds below, state its TGI.

[
  {
    "Compound": "O=c1nc(N2CCCCC2)sc2[nH]c3ccccc3c12",
    "Experimental result": "> 100 µM"
  }
]

Batch lookup, TGI per entry.
1. CC(C)=NC(C(=O)O)C(C)(C)S (stereo not drawn)
2. CCc1nc(N)nc(N)c1-c1ccc(N2CCNCC2)c([N+](=O)[O-])c1

> 100 µM
> 100 µM

###

- Test system: DMS 114 small cell lung
- Assay info: NCI tumour cell line growth inhibition, 48 h
Measured quantity: TGI

Observe how each entry below is paired with its result.
[
  {
    "Compound": "CN(C)CC1CCCC/C1=N\\OC(=O)c1ccccc1 (stereo not drawn)",
    "TGI": "> 100 µM"
  },
  {
    "Compound": "C/C(=C\\CNc1ncnc2c1ncn2C1CCCCO1)COP(=O)(O)O (stereo not drawn)",
    "TGI": "> 100 µM"
  }
]

Now look at this one.
TGI lookup needed for COC(=O)C1=C(C)N(NC(N)=O)C2(N)N(NC(N)=O)C(C)=C(C(=O)OC)C12C#N (stereo not drawn) , thanks. > 100 µM

###

For each of the molecules below, state its GI50.
- Test system: UO-31 renal
- Assay info: NCI tumour cell line growth inhibition, 48 h

Observe how each entry below is paired with its result.
[
  {
    "Molecule": "N#Cc1c(-c2ccccc2)nc(SCC(O)CN2CCOCC2)nc1N1CCOCC1 (stereo not drawn)",
    "GI50": "1540 nM"
  },
  {
    "Molecule": "C=CCc1cc(O)ccc1O",
    "GI50": "11000 nM"
  }
]

Now look at this one.
GI50 lookup needed for CN1CCN(CCCCCOc2cc(O)c3c(=O)cc(-c4ccccc4)oc3c2)CC1 , thanks. 1710 nM

###

- Test system: CAKI-1 renal
- Assay info: NCI tumour cell line growth inhibition, 48 h
For each of the molecules below, state its TGI.

[
  {
    "Chemical structure": "CN(C)CCNc1ncnc2nc(-c3ccccc3)c(-c3ccccc3)nc12",
    "Experimental target": "CAKI-1 renal",
    "TGI": "> 100 µM"
  },
  {
    "Chemical structure": "CC(=O)OC[C@@]1(C)[C@@H]2[C@@H]3[C@@]4(CO[C@]3(C)C(=O)[C@@]3(OC(C)=O)C[C@H](C)[C@H](OC(C)=O)[C@@H]3[C@H]4OC(C)=O)[C@H](OC(=O)c3ccccc3)C[C@@H]21",
    "Experimental target": "CAKI-1 renal",
    "TGI": "> 100 µM"
  }
]

Now look at this one.
TGI lookup needed for CC(=O)Nc1ccc2cc(C#N)c(=O)[nH]c2n1 , thanks. > 100 µM

###

- Tested on: OVCAR-8 ovarian
- Assay info: NCI tumour cell line growth inhibition, 48 h; in the data active = GI50 below about 0.43 µM; inactive = the rest
Mark one answer only. Choices: active, inactive

[
  {
    "Chemical structure": "[CH3][Ge]([CH3])([CH2]CC#N)[S]c1ccccc1",
    "Qualitative label": "inactive"
  },
  {
    "Chemical structure": "CCNCCS(=O)(=O)NC[C@@]1(c2ccccc2)SC(NC(=O)C(C)(C)C)=NN1C(=O)C(C)(C)C",
    "Qualitative label": "active"
  },
  {
    "Chemical structure": "CCN(CC)CCOc1ccc(/C(=C(\\C)Cc2ccc(OC)cc2)c2ccc(O)cc2)cc1",
    "Qualitative label": "inactive"
  },
  {
    "Chemical structure": "C=C1CC[C@@](C)(c2cc(Br)c(C)cc2OC(C)=O)[C@H]1C",
    "Qualitative label": "inactive"
  },
  {
    "Chemical structure": "N#C/C(=C\\c1ccc(O)c(O)c1)C(=O)NCc1cccc(C(F)(F)F)c1",
    "Qualitative label": "inactive"
  },
  {
    "Chemical structure": "CCN(CC)Cc1cc(Nc2ccnc3ccc(OC)cc23)ccc1O",
    "Qualitative label": "inactive"
  }
]

Would you kindly look at the next entry?
// param item: CN1C(=O)[C@@H](CC2CCCC2)N(C2CCCC2)c2nc(Nc3cc(Cl)c(O)c(Cl)c3)ncc21 ; yields the recorded call inactive

###

- System: A498 renal
- Assay info: NCI tumour cell line growth inhibition, 48 h
For each of the compounds below, state its TGI.

[
  {
    "Compound": "COc1cc(O)c2c(c1C)C(C)(O)c1c(C)coc1C2=O (centres undefined)",
    "Experimental target": "A498 renal",
    "Experimental result": "> 100 µM"
  },
  {
    "Compound": "COc1ccc(/C=C/c2cc(O)cc(OC3OC(CO)C(O)C(O)C3O)c2)cc1O (centres undefined)",
    "Experimental target": "A498 renal",
    "Experimental result": "> 100 µM"
  },
  {
    "Compound": "O=C1C=C(Nc2cc(Cl)ccc2Cl)c2ccccc2C1=O",
    "Experimental target": "A498 renal",
    "Experimental result": "52 µM"
  }
]

Now look at this one.
TGI lookup needed for Oc1ccc(I)c2cccnc12 , thanks. > 100 µM

###

- Tested on: MDA-N
- Assay info: NCI tumour cell line growth inhibition, 48 h
Measured quantity: TGI

[
  {
    "Chemical structure": "O=S1(=O)C[C@H](NCc2ccccc2)[C@H](NCc2ccccc2)C1",
    "Measured quantity": "TGI",
    "Experimental result": "> 100 µM"
  }
]

Batch lookup, TGI per entry.
1. NC(=S)NN=Cc1ccccc1OCc1cccc(COc2ccccc2C=NNC(N)=S)n1
2. CCOc1cc(CC[N+](C)(C)C)c2c(ccc3ccc(OC)c(OC)c32)c1OC

1. > 100 µM
2. > 100 µM

###

For each of the compounds below, state its TGI.
- Tested on: OVCAR-5 ovarian
- Assay info: NCI tumour cell line growth inhibition, 48 h

Batch lookup, TGI per entry.
1. CCc1cccc(C(C)C)c1NC(=O)C(=O)Nn1c(=S)[nH]c2ccccc2c1=O
2. CC(=O)[CH-]C(=O)c1ccccc1.CC(=O)[CH-]C(=O)c1ccccc1.CC[C@H](CCC(C)[C@H]1CCC2[C@@H]3CC=C4C[C@@H]([O-])CC[C@]4(C)C3CC[C@@]21C)C(C)C.CC[C@H](CCC(C)[C@H]1CCC2[C@@H]3CC=C4C[C@@H]([O-])CC[C@]4(C)C3CC[C@@]21C)C(C)C.Cl.[Ti+4] (some centres not stated)
3. CCOP(=O)(OCC)C(Cc1c[nH]c2ccccc12)C(=O)O (configuration not stated)
4. C#CC(O)/C=C/C(O)CCCC(O)CC#CC(O)C#CCCCCC(O)/C=C/CCCCCC(=O)CCCCCCCCCCCCCC(O)C(O)C#CC(=O)O (configuration not stated)
5. COc1ccc(/C=C/C(=O)OC2CC34CCNC35CC(OC5(OC)C2OC)c2ccc(OC)c(O)c24)cc1O (configuration not stated)
6. Nc1nc(N)c(N=Nc2ccccc2)c(=O)[nH]1
7. CC(=O)CCC[C@@H](C)[C@@H]1O[C@H]([C@@]2(C)CCC(=O)O2)CC2[C@H]1OC(=O)C21CC1 (some centres not stated)

> 100 µM
> 25 µM
> 100 µM
> 25 µM
> 100 µM
> 100 µM
> 100 µM

Data credit: PubChem BioAssay (NCI)
